Reported No. of cured mice values are given for each entry in this list.
test system: Plasmodium berghei; experiment: Antimalarial activity in Plasmodium berghei infected mice (Mus musculus) after subcutaneous 320 mg/kg dose; format: functional
Give the figure by itself; no unit, no explanation.

# annotated cases, reported No. of cured mice shown
>  <MOLECULE>
CC1C(=O)c2c(n(O)c3ccc(Cl)cc3c2=O)CC1c1ccc(Cl)c(Cl)c1 (centres undefined)

>  <TARGET>
Plasmodium berghei

>  <No. of cured mice>
5

$$$$
>  <MOLECULE>
CC1C(=O)c2c(nc3ccc(Cl)cc3c2O)CC1c1ccc(Cl)c(Cl)c1 (centres undefined)

>  <TARGET>
Plasmodium berghei

>  <No. of cured mice>
5

$$$$
>  <MOLECULE>
OCCN(CCO)CCC/N=C1\CC(c2ccc(Cl)cc2Cl)Cc2nc3ccc(Cl)cc3c(O)c21 (centres undefined)

>  <TARGET>
Plasmodium berghei

>  <No. of cured mice>
5

$$$$
>  <MOLECULE>
CCCCNC(CC)C/N=C1\CC(c2cccc(C(F)(F)F)c2)Cc2c1c(=O)c1cc(Cl)ccc1n2O (centres undefined)

>  <TARGET>
Plasmodium berghei

>  <No. of cured mice>
5

$$$$
>  <MOLECULE>
CC1(C)CC(=O)c2c(nc3ccc(Cl)cc3c2O)C1

>  <TARGET>
Plasmodium berghei

>  <No. of cured mice>
3

$$$$
>  <MOLECULE>
CC1C(=O)c2c(nc3ccc(Cl)cc3c2O)CC1c1ccc(C(F)(F)F)cc1 (centres undefined)

>  <TARGET>
Plasmodium berghei

>  <No. of cured mice>
5

$$$$
>  <MOLECULE>
O=c1c2c(n(O)c3ccc(Cl)cc13)CC(c1ccc(C(F)(F)F)cc1)C/C2=N\CCCNCCO (centres undefined)

>  <TARGET>
Plasmodium berghei

>  <No. of cured mice>
4

$$$$
>  <MOLECULE>
CN(C)CCC/N=C1\CC(c2ccc(C(F)(F)F)cc2)Cc2nc3c(Cl)cc(Cl)cc3c(O)c21 (centres undefined)

>  <TARGET>
Plasmodium berghei

>  <No. of cured mice>
5

$$$$

The reported Plasmodium berghei No. of cured mice of CN(C)CCC/N=C1\CC(c2c(Cl)cccc2Cl)Cc2c1c(=O)c1cc(Cl)ccc1n2O (centres undefined) is 1

---

system: Plasmodium berghei; test: Antimalarial activity in Plasmodium berghei infected mice (Mus musculus) after 320 mg/kg subcutaneous dose; format: functional
Categories are assigned from the measured Delta mean survival time using these intervals: category 1 (below 6), category 2 (6 to below 10), category 3 (10 or more)

Any idea which band O=C1CC(c2ccccc2)Cc2c1c(=O)c1cc(Cl)ccc1n2O (stereo not drawn) is in?
category 2

Any idea which band CCN(CC)Cc1cccc(/N=C2\CC(c3ccc(Cl)c(Cl)c3)Cc3c2c(=O)c2cc(Cl)ccc2n3O)c1 (stereo not drawn) is in?
category 3

Any idea which band CC1/C(=N\CCCN(C)C)c2c(nc3ccc(Cl)cc3c2O)CC1c1ccc(Cl)cc1Cl (stereo not drawn) is in?
category 1

Any idea which band CC(C)C1CC(=O)c2c(n(O)c3ccc(Cl)cc3c2=O)C1 (stereo not drawn) is in?
category 2

Any idea which band CCN(CC)CC(C)(C)C/N=C1\CC(c2ccc(Cl)c(Cl)c2)Cc2c1c(=O)c1cc(Cl)ccc1n2O (stereo not drawn) is in?
category 3

Any idea which band COc1ccccc1C1CC(=O)c2c(n(O)c3ccc(Cl)cc3c2=O)C1 (stereo not drawn) is in?
category 1

---

system: Plasmodium berghei; assay: Antimalarial activity was measured against mice (Mus musculus) infected with Plasmodium berghei by subcutaneous administration of 40 mg/kg dose; assay type: organism-based; set-up: dose 40 mg/kg, route subcutaneous; details: in vivo, sc
MEASURED_PROPERTY: No. of toxic deaths
Give the figure by itself; no unit, no explanation.

>  <MOLECULE>
O=C1CC(c2ccc(C(F)(F)F)cc2)Cc2c1c(=O)c1cc(Cl)c(F)cc1n2O (configuration not stated)

>  <No. of toxic deaths>
5

$$$$
>  <MOLECULE>
CN(C)CCC/N=C1\CC(c2ccccc2Cl)Cc2c1c(=O)c1cc(Cl)ccc1n2O (configuration not stated)

>  <No. of toxic deaths>
2

$$$$
>  <MOLECULE>
COc1ccccc1C1C/C(=N\CCCN(C)C)c2c(n(O)c3ccc(Cl)cc3c2=O)C1 (configuration not stated)

>  <No. of toxic deaths>
1

$$$$
>  <MOLECULE>
CN(C)CCC/N=C1\CC(c2ccc(C(F)(F)F)cc2)Cc2nc3ccccc3c(O)c21 (configuration not stated)

>  <No. of toxic deaths>
5

$$$$
>  <MOLECULE>
O=C1CC(c2ccc(Cl)cc2Cl)Cc2nc3c(Cl)cccc3c(O)c21 (configuration not stated)

>  <No. of toxic deaths>
1

$$$$

The reported Plasmodium berghei No. of toxic deaths of CN(C)CCC/N=C1\CC(c2ccc(C(F)(F)F)cc2)Cc2nc3cc(Cl)ccc3c(O)c21 (configuration not stated) is 3

The reported Plasmodium berghei No. of toxic deaths of CCn1c2c(c(=O)c3cc(Cl)ccc31)C(=O)CC(c1ccc(C(F)(F)F)cc1)C2 (configuration not stated) is 2

The reported Plasmodium berghei No. of toxic deaths of O=c1c2c(n(O)c3ccc(Cl)cc13)CC(c1cccc(C(F)(F)F)c1)C/C2=N\CCCCCN1CCCC1 (configuration not stated) is 4

---

tested on: Plasmodium berghei; assay: Antimalarial activity Plasmodium berghei infected mice (Mus musculus) after 640 mg/kg subcutaneous dose; format: functional
MEASURED_PROPERTY: Delta mean survival time
Give the figure by itself; no unit, no explanation.

The reported Plasmodium berghei Delta mean survival time of O=C1CC(c2ccc(C(F)(F)F)cc2)Cc2nc3c(Br)cc(Br)cc3c(O)c21 (centres undefined) is 0

The reported Plasmodium berghei Delta mean survival time of O=C1CC(c2cccc3ccccc23)Cc2c1c(=O)c1cc(Cl)ccc1n2O (centres undefined) is 13.7

The reported Plasmodium berghei Delta mean survival time of Cc1ccc(C2C/C(=N\CCCN(C)C)c3c(n(O)c4ccc(Cl)cc4c3=O)C2)cc1 (centres undefined) is 1

---

system: Plasmodium berghei; experiment: Antimalarial activity in Plasmodium berghei infected mice (Mus musculus) after subcutaneous 640 mg/kg dose; assay type: functional
Reported No. of cured mice values are given for each entry in this list.
Give the figure by itself; no unit, no explanation.

# annotated cases, reported No. of cured mice shown
>  <COMPOUND>
CCN(CC)CC/N=C1\CC(c2ccc(Cl)c(Cl)c2)Cc2nc3ccc(Cl)cc3c(O)c21 (centres undefined)

>  <No. of cured mice>
5

$$$$
>  <COMPOUND>
O=C1CC(c2ccc(Cl)cc2Cl)Cc2c1c(=O)c1cc(Cl)ccc1n2O (centres undefined)

>  <No. of cured mice>
5

$$$$
>  <COMPOUND>
CN(C)CCC/N=C1\CC(c2c(Cl)cccc2Cl)Cc2c1c(=O)c1cc(Cl)ccc1n2O (centres undefined)

>  <No. of cured mice>
5

$$$$
>  <COMPOUND>
O=c1c2c(n(O)c3ccc(Cl)cc13)CC(c1ccc(Cl)c(Cl)c1)C/C2=N\CCCN1CCCCC1 (centres undefined)

>  <No. of cured mice>
5

$$$$
>  <COMPOUND>
CCCCCCC/N=C1\CC(c2ccc(C(F)(F)F)cc2)Cc2c1c(=O)c1cc(Cl)ccc1n2O (centres undefined)

>  <No. of cured mice>
4

$$$$

Reported No. of cured mice of CC1C(=O)c2c(n(O)c3ccc(Cl)cc3c2=O)CC1c1ccc(Cl)c(Cl)c1 (centres undefined) : 5

Reported No. of cured mice of CCN(CC)CCC/N=C1\CC(c2ccc(Cl)c(Cl)c2)Cc2c1c(=O)c1cc(Cl)ccc1n2O (centres undefined) : 5

Reported No. of cured mice of CSCCC/N=C1\CC(c2ccc(Cl)c(Cl)c2)Cc2c1c(=O)c1cc(Cl)ccc1n2O (centres undefined) : 1

Reported No. of cured mice of O=C1CC(c2ccccc2Cl)Cc2c1c(=O)c1cc(Cl)ccc1n2O (centres undefined) : 4

---

Reported No. of toxic deaths values are given for each entry in this list.
tested on: Plasmodium berghei; assay: Antimalarial activity was measured against mice (Mus musculus) infected with Plasmodium berghei by subcutaneous administration of 640 mg/kg dose; assay type: organism-based; set-up: dose 640 mg/kg, route subcutaneous; details: in vivo, sc
Give the figure by itself; no unit, no explanation.

# annotated cases, reported No. of toxic deaths shown
>  <COMPOUND>
CN(C)CCC/N=C1\CC(c2ccc(C(F)(F)F)cc2)Cc2nc3ccccc3c(O)c21 (stereo not drawn)

>  <No. of toxic deaths>
5

$$$$
>  <COMPOUND>
CC1/C(=N\CCCN(C)C)c2c(nc3ccc(Cl)cc3c2O)CC1c1ccc(Cl)c(Cl)c1 (stereo in doubt)

>  <No. of toxic deaths>
1

$$$$

The reported Plasmodium berghei No. of toxic deaths of O=c1c2c(n(O)c3ccc(Cl)cc13)CC(c1cccc(C(F)(F)F)c1)C/C2=N\CCCCCCN1CCCCC1 (stereo not drawn) is 5

The reported Plasmodium berghei No. of toxic deaths of C=CCNCC/N=C1\CC(c2ccc(C(F)(F)F)cc2)Cc2c1c(=O)c1cc(Cl)ccc1n2O (stereo not drawn) is 5
